Protocol Summary: PFAS levels in urine samples of airport employees, specific-gravity adjusted (LC/MS/MS)
Type: in vivo, human
Run Parameters: second to fifth samplings, 17 airport employees
Description: Only one employee provided a single urine sample. […] All employees provided written informed consent. The samples were thawed 1–2 h, then mixed by vortex shaker and manual turning. […] Aliquots of 20μL of the sample were analyzed using LC/MS/MS. […] Urinary PFAS concentrations were specific-gravity adjusted. The ratio of urine and serum concentration for each PFAS (urine/serum ratio) at each sampling was calculated based on PFAS concentrations in paired serum and urine samples from 17 employees. […]
Below: a set of entries, each annotated with reported Specific gravity adjusted urine level, median (range).
Experimental Endpoint: Specific gravity adjusted urine level, median (range)

INSERT INTO results (molecular_string, measured) VALUES
  ('O=C(O)C(F)(F)C(F)(F)C(F)(F)C(F)(F)C(F)(F)C(F)(F)F', '0.025 ( <LOD –0.080) ng/mL'),
  ('O=S(=O)(O)C(F)(F)C(F)(F)C(F)(F)C(F)(F)C(F)(F)F', '0.072 (0.021–0.12) ng/mL'),
  ('O=S(=O)(O)C(F)(F)C(F)(F)C(F)(F)C(F)(F)C(F)(F)C(F)(F)F', '0.092 (0.025–0.73) ng/mL'),
  ('O=C(O)C(F)(F)C(F)(F)C(F)(F)C(F)(F)C(F)(F)C(F)(F)C(F)(F)F', '0.031 (0.010–0.13) ng/mL');
